biological target: T1, His-tagged human CD38 (ACRO Biosystems cat #CD8-H5224) (human, UniProt P28907 43-300); test: ELISA, coated His-CD38
T1 construct: bought recombinant protein with His tag
Kindly state ELISA 1 ug/ml for each of the entries shown.
Answers are plain numbers.

binder="40566p1.A12 (scFv, V domains shown, tested as scFv-Fc supernatant; also called 40566p1.Al2) VH: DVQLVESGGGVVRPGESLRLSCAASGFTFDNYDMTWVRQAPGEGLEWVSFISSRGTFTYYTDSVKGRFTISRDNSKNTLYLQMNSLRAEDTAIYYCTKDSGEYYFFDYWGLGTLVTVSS VL: EIVMTQSPATLSVSPGERATFSCRASQSVNSKLAWYQQKPGQAPRLLIYDASRRATGIPDRFSGSGSGTEFTLTISSLQSEDFAVYYCQQYYDWPPLTFGGGTKVEIK" measurement_type="ELISA 1 ug/ml" readout_number=1.98

# context switch: different binder, same ELISA 1 ug/ml
Give the measured ELISA 1 ug/ml of 40566p1.D2 (scFv, V domains shown, tested as scFv-Fc supernatant) VH: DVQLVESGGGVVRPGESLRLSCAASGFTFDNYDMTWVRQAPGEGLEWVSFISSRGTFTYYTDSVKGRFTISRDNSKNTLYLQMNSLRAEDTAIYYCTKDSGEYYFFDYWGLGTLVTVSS VL: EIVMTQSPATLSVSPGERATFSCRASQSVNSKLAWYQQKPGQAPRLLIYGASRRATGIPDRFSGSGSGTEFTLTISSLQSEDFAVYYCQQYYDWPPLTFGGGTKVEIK . 1.96
